# systemTested: NADPH oxidase 4 (Homo sapiens) (UniProt Q9NPH5)
# Sequence (Q9NPH5 whole entry, looked up): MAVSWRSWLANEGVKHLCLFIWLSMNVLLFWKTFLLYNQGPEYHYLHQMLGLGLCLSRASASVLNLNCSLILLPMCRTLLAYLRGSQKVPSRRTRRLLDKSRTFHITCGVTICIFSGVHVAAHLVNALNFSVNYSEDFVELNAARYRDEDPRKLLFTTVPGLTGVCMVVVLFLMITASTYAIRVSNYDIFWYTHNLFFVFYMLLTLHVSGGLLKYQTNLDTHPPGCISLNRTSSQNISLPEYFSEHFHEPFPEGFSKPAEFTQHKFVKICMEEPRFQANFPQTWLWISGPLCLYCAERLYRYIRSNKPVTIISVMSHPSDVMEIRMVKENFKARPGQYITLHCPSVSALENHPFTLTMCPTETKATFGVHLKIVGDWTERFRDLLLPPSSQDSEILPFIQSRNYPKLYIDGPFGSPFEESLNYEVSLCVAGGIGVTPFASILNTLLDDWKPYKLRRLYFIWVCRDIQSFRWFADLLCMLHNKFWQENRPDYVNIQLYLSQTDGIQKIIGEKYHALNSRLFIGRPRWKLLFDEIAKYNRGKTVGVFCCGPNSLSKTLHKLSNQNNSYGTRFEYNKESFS
# protocol: NOX4-dependent H2O2 signal modulators, primary screen, NOX inhibitor project, cell-based, HEK293-NOX4, tetracycline-induced, Amplex Red fluorescence (AID 1160)
# conditionNotes: 45 min, higher = more signal, called active from +8 up or from −8 down
Recorded z-score by entry
Number only, please.

Check out these entries, answers already filled in.
{"smilesData": "Cc1ccc(N2C(=O)c3ccccc3[C@@H](C(=O)NCc3ccccc3)[C@@H]2c2ccc(CO)cc2)nc1", "systemTested": "NADPH oxidase 4 (Homo sapiens) (UniProt Q9NPH5)", "measurementKind": "z-score", "resultNumber": 1.03}
{"smilesData": "O=C(O)[C@@H]1Cc2c([nH]c3ccccc23)[C@@H](c2ccccc2)N1", "systemTested": "NADPH oxidase 4 (Homo sapiens) (UniProt Q9NPH5)", "measurementKind": "z-score", "resultNumber": -0.429}
{"smilesData": "C#C[C@H](O[Si](C#Cc1ccccc1)(C(C)C)C(C)C)c1ccccc1", "systemTested": "NADPH oxidase 4 (Homo sapiens) (UniProt Q9NPH5)", "measurementKind": "z-score", "resultNumber": -0.779}

Exam item: Find the measured z-score of CCOC(=O)C[C@H]1[C@H](OC(=O)c2ccccc2-c2ccccc2)[C@@H](NC(=O)C2CCCCC2)c2cc(OCCCO)ccc2N1C(=O)c1ccccc1 with NADPH oxidase 4 (Homo sapiens) (UniProt Q9NPH5) as test system.
Marked response: 0.936
